Source listed as patent US20230382920A1.

- protocol: Pharmacokinetics study of KDG-0271 in male CD1 mice (Example 3)
- Type: in vivo
- conditions.used: mouse; male CD1 mice, plasma, 200 mg/kg IP, 1 h; read-out: Concentration IP_Mean
assay.readout: concentration at 1 h (ng/mL)
Field: numeric (ng/mL). Do not append units.

Please fill in: concentration at 1 h reported for Cc1n[nH]c2c1C(c1cc(C#CC3CN(C(=O)OC(C)(C)C)C3)cc(CO)c1)(C(C)C)C(C#N)=C(N)O2 (stereo not shown) = 1390

* * *

- Tested on: HCT116
- protocol: HCT116 growth inhibition assay
- Format: cell-based
- conditions.used: without formate
assay.readout: IC50

These recorded examples may help you get a feel for the data.
> print(dat)
                                   molecule  target.entity  data.value
1  Cc1n[nH]c2c1C(c1cc(C#CC3(F)CCN(C(=O)OC(C)(C)C)CC3)cc(CO)c1)(C(C)C)C(C#N)=C(N)O2 (stereo not shown) [KDG-0297]         HCT116          B″
2  Cc1n[nH]c2c1C(c1cc(C#C[C@H]3C[C@H](C(=O)N(C)C)C3)cc(CO)c1)(C(C)C)C(C#N)=C(N)O2 (stereo partly shown) [KDG-0265]         HCT116          C″
3  CC(=O)O[C@]1(C)C[C@H](C#Cc2cc(CO)cc(C3(C(C)C)C(C#N)=C(N)Oc4[nH]nc(C)c43)c2)C1 (stereo partly shown) [KDG-0269]         HCT116          B″
4  Cc1n[nH]c2c1C(c1cc(C#C[C@H]3CC[C@H](NC(=O)OC(C)(C)C)C3)cc(CO)c1)(C(C)C)C(C#N)=C(N)O2 (stereo partly shown) [KDG-0506]         HCT116          B″
5  Cc1n[nH]c2c1C(c1cc(C#CC3CN(C(=O)OC(C)(C)C)C3)cc(COC(=O)C(C)C)c1)(C(C)C)C(C#N)=C(N)O2 (stereo not shown) [KDG-0293]         HCT116          A″

Please fill in: IC50 reported for Cc1n[nH]c2c1C(c1cc(C#C[C@H]3C[C@@H](COC(N)=O)C3)cc(C(C)(C)O)c1)(C(C)C)C(C#N)=C(N)O2 (stereo partly shown) [KDG-0262-100] = C″

Please fill in: IC50 reported for Cc1n[nH]c2c1C(c1cc(C#CC3CN(C(=O)OC(C)(C)C)C3)cc(CO)c1)(C(C)C)C(C#N)=C(N)O2 (stereo not shown) [KDG-0271-0-pk1] = A″

Please fill in: IC50 reported for Cc1n[nH]c2c1C(c1cc(C#CC3CCN(C(=O)OC(C)(C)C)CC3)cc(CO)c1)(C(C)C)C(C#N)=C(N)O2 (stereo not shown) [KDG-0289] = A″

Please fill in: IC50 reported for Cc1n[nH]c2c1C(c1cc(C#C[C@H]3C[C@H](C(C)(C)O)C3)cc(CO)c1)(C(C)C)C(C#N)=C(N)O2 (stereo partly shown) [KDG-0258] = A″

Please fill in: IC50 reported for Cc1n[nH]c2c1C(c1cc(C#CC3CCCN(C(=O)OC(C)(C)C)C3)cc(CO)c1)(C(C)C)C(C#N)=C(N)O2 (stereo not shown) [KDG-0288] = C″
